testSystem: TJP1_3, Q07157
Sequence (Q07157 416-512): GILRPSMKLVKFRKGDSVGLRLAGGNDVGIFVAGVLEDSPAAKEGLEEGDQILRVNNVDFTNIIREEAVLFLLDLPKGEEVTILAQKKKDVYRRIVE
assayRemarks: holdup assay
Set-up: key: below the threshold = too weak to quantify, mostly under pKd 3.1 to 4
conditionDescription: plain residues with an end cap or a label only (N-terminal biotin on a linker: ahx)

{"columns": ["binder", "pKd"],
 "data": [
  ["HNAFLSVTTV [PDZRN4, Q6ZMN7]", "below the threshold"],
  ["LSDPSVSTVV [GRIN1, Q05586;Q05586-2]", "below the threshold"],
  ["TVICWPGSLV [LNX2, Q8N448]", "below the threshold"],
  ["NRKREIFSNF [NHERF2, Q15599]", "below the threshold"]
]}
